SYSTEM_TESTED: TetR (class B, Tn10)
PROTOCOL_NOTES: TetR repression strength (sort-seq, GFP reporter) (relative to tetO2 = 1); higher = stronger repression
CONDITION_DESCRIPTION: E. coli
Over roughly 18,000 sequences, “TetR repression strength (sort-seq, GFP reporter)” has its median near 0.23; the highest 2% begin near 0.68. This excerpt belongs to a sample that is enriched for the highest values.
The label depends only on TetR repression strength: Satisfied if it is at least 0.7, Not satisfied if it is smaller.

TCCCCAAAAGTAGATGAGA | Not satisfied
TCCCCAATAGTAGATGAGA | Not satisfied
TCCCCACGAGTAGTCGAGA | Not satisfied
TCCCGGGTAGTCGAGGAGA | Not satisfied

stdin: Does the sequence "TCCCCATGAGTAGTCGAGA" have recorded TetR repression strength that is 0.7 or more?
stdout: Satisfied

stdin: Does the sequence "TCCCCATTAGTATTCGAGA" have recorded TetR repression strength that is 0.7 or more?
stdout: Not satisfied

stdin: Does the sequence "TCCCCAATAGTAGTCGAGA" have recorded TetR repression strength that is 0.7 or more?
stdout: Not satisfied

stdin: Does the sequence "TCCCCATTAGTAGTCGAGA" have recorded TetR repression strength that is 0.7 or more?
stdout: Satisfied

* * *

What TetR repression strength was measured for each of the following?
SYSTEM_TESTED: TetR (class B, Tn10) (UniProt P04483)
Sequence (P04483 whole entry): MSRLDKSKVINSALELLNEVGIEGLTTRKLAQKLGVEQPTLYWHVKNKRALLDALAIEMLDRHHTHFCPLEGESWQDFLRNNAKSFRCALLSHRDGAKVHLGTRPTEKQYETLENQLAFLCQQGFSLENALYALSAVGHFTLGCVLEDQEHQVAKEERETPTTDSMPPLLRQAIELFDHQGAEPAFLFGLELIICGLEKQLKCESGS
PROTOCOL_NOTES: TetR repression strength (sort-seq, GFP reporter) (relative to tetO2 = 1); higher = stronger repression
CONDITION_DESCRIPTION: E. coli
Whole data set: some 18,000 sequences, median “TetR repression strength (sort-seq, GFP reporter)” near 0.23, cut for the highest 2% near 0.68. Only a selection was taken, and the highest values are over-represented in it overall.
One number for each entry.

Example results:
TCCCGCTTAGTGTCAGAGA | 0.634
TCCCGCTGAGTGTCAGAGA | 1.09
TCCCTTCTAGTTGTTGAGA | 0.216

# batch: return TetR repression strength for each of the 2 sequences below
1. TCCCTTCTAGTTGCTGAGA
2. TCCCTTAGAGTCTATGAGA

stdout:
0.73
0.159

# batch: return TetR repression strength for each of the 7 sequences below
1. TCCCTTTTAGTCTATGAGA
2. TCCCGCGGAGTGTAAGAGA
3. TCCCGCAGAGTGTAAGAGA
4. TCCCGCTCAGTGACAGAGA
5. TCCCTTTTAGTGTATGAGA
6. TCCCGGTCAGTGACAGAGA
7. TCCCGCTCAGTGCCTGAGA

stdout:
[0.858, 0.256, 0.753, 0.715, 0.271, 0.666, 0.348]

# batch: return TetR repression strength for each of the 4 sequences below
1. TCCCTTTGAGTCTATGAGA
2. TCCCGTCTAGTCTTTGAGA
3. TCCCGCAGAGTGTAGGAGA
4. TCCCGCTGAGTGCCAGAGA

stdout:
1. 0.804
2. 0.366
3. 0.191
4. 0.341

* * *

SYSTEM_TESTED: TetR (class B, Tn10) (UniProt P04483)
PROTOCOL_NOTES: TetR repression strength (sort-seq, GFP reporter) (relative to tetO2 = 1); higher = stronger repression
CONDITION_DESCRIPTION: E. coli
In all, about 18,000 sequences were measured (“TetR repression strength (sort-seq, GFP reporter)”: median about 0.23, highest 2% from about 0.68 on). The sample holds the highest values, similar sequences and a random draw of the others, so the mix is not that of the screen.
What TetR repression strength was measured for each of the following?
Give bare numbers.

Example results:
TCCCTGGCAGTGATAGAGA | 0.489
TCCCGGCCAGTTCGTGAGA | 0.197

# batch: return TetR repression strength for each of the 5 sequences below
1. TCCCTATGAGTGGTGGAGA
2. TCCCACGCAGTGGGGGAGA
3. TCCCGATTAGTAGGGGAGA
4. TCCCTATGAGTAGTGGAGA
5. TCCCTAGTAGTAGTGGAGA

stdout:
1: 0.119; 2: 0.188; 3: 0.844; 4: 0.707; 5: 0.159

stdin: Record request: TetR repression strength value, item "TCCCTATGAGTAGTAGAGA"
stdout: 0.204

* * *

What TetR repression strength was measured for each of the following?
SYSTEM_TESTED: TetR (class B, Tn10) (UniProt P04483)
PROTOCOL_NOTES: TetR repression strength (sort-seq, GFP reporter) (relative to tetO2 = 1); higher = stronger repression
CONDITION_DESCRIPTION: E. coli
In all, about 18,000 sequences were measured (“TetR repression strength (sort-seq, GFP reporter)”: median about 0.23, highest 2% from about 0.68 on). This excerpt belongs to a sample that is enriched for the highest values.
Answers are plain numbers.

Example results:
TCCCAGTAAGTCCGGGAGA | 0.157
TCCCAGTAAGTGTCGGAGA | 0.811
TCCCCCCCAGTCGATGAGA | 0.409
TCCCAGTGAGTGTCGGAGA | 0.183
TCCCTGTGAGTGACGGAGA | 0.115
TCCCCAGGAGTCCGGGAGA | 0.332
TCCCATCCAGTGCTTGAGA | 0.267

Moving on to the next sequence.
stdin: Record request: TetR repression strength value, item "TCCCCCCTAGTGGACGAGA"
stdout: 0.178

* * *

SYSTEM_TESTED: TetR (class B, Tn10) (UniProt P04483)
PROTOCOL_NOTES: TetR repression strength (sort-seq, GFP reporter) (relative to tetO2 = 1); higher = stronger repression
CONDITION_DESCRIPTION: E. coli
Whole data set: some 18,000 sequences, median “TetR repression strength (sort-seq, GFP reporter)” near 0.23, cut for the highest 2% near 0.68. This excerpt belongs to a sample that is enriched for the highest values.
What TetR repression strength was measured for each of the following?
Answers are plain numbers.

Example results:
TCCCCAAAAGTGGGGGAGA | 0.196
TCCCCAACAGTCTTGGAGA | 0.692
TCCCTCACAGTGTGGGAGA | 1.22
TCCCAAAAAGTGTGGGAGA | 0.415
TCCCCAAGAGTCTTGGAGA | 0.193

# batch: return TetR repression strength for each of the 3 sequences below
1. TCCCCAAAAGTTTTGGAGA
2. TCCCTCTCAGTGTGGGAGA
3. TCCCCAAAAGTCTTGGAGA

stdout:
1: 0.276; 2: 0.234; 3: 0.681

* * *

SYSTEM_TESTED: TetR (class B, Tn10)
PROTOCOL_NOTES: TetR repression strength (sort-seq, GFP reporter) (relative to tetO2 = 1); higher = stronger repression
CONDITION_DESCRIPTION: E. coli
Over roughly 18,000 sequences, “TetR repression strength (sort-seq, GFP reporter)” has its median near 0.23; the highest 2% begin near 0.68. The full list was thinned out, with the highest values kept by preference.
What TetR repression strength was measured for each of the following?
Give bare numbers.

TCCCTATGAGTGATAGAGA | 0.765
TCCCCTGCAGTGGCTGAGA | 0.205
TCCCTTCAAGTTCTGGAGA | 1.03
TCCCTAGTAGTTGCGGAGA | 0.322
TCCCTTTCAGTTACAGAGA | 0.363

# batch: return TetR repression strength for each of the 2 sequences below
1. TCCCTGTAAGTCGTGGAGA
2. TCCCAGGCAGTGCTTGAGA

stdout:
1. 0.309
2. 0.113

# batch: return TetR repression strength for each of the 6 sequences below
1. TCCCGGAGAGTTACAGAGA
2. TCCCTTCTAGTTCTGGAGA
3. TCCCAAAGAGTGGTAGAGA
4. TCCCAGAAAGTCAATGAGA
5. TCCCAAGGAGTGATAGAGA
6. TCCCGGGCAGTGGGGGAGA

stdout:
1. 0.245
2. 0.402
3. 0.164
4. 0.289
5. 0.977
6. 0.347

* * *

SYSTEM_TESTED: TetR (class B, Tn10) (UniProt P04483)
PROTOCOL_NOTES: TetR repression strength (sort-seq, GFP reporter) (relative to tetO2 = 1); higher = stronger repression
CONDITION_DESCRIPTION: E. coli
In all, about 18,000 sequences were measured (“TetR repression strength (sort-seq, GFP reporter)”: median about 0.23, highest 2% from about 0.68 on). The list comes from a sample in which the highest values are over-represented; it also holds close analogues and randomly drawn sequences.
What TetR repression strength was measured for each of the following?
Give bare numbers.

Example results:
TCCCCAGGAGTCTAGGAGA | 0.284
TCCCAGGAAGTCAGGGAGA | 0.235
TCCCCCGAAGTTAAGGAGA | 0.155
TCCCTCCTAGTCTCCGAGA | 0.394
TCCCATTGAGTGCTTGAGA | 0.36

# batch: return TetR repression strength for each of the 7 sequences below
1. TCCCCGCCAGTCTAGGAGA
2. TCCCTGTAAGTATGGGAGA
3. TCCCGCCAAGTCCCTGAGA
4. TCCCAGACAGTGATAGAGA
5. TCCCCGAAAGTACAGGAGA
6. TCCCCGATAGTCGTGGAGA
7. TCCCAGACAGTCATTGAGA

stdout:
0.681
0.174
0.389
0.384
0.259
0.177
0.375
